- System: KRAS patient-derived spheroids with HUVEC/MSC, viability
- test summary: Anticancer human tumor 323965-272-R-J2-PDC patient-derived pancreatic carcinoma cell line growth inhibition [KRAS2]
- condition label: second compound 3.16 µM; first compound 0.1 µM; stronger effect = lower value
Lab note: cut-off is 40%. Strictly less in viability, T/C is t. Exactly 40% or more is f.

{"columns": ["molecule", "tested on", "assigned class"],
 "data": [
  ["CCNC(=O)CC1N=C(c2ccc(Cl)cc2)c2cc(OC)ccc2-n2c(C)nnc21 (stereo unspecified) + CC1OCC2(CCN(c3cnc(Sc4ccnc(N)c4Cl)c(N)n3)CC2)C1N", "KRAS patient-derived spheroids with HUVEC/MSC, viability", "t"],
  ["CN(C)C/C=C/C(=O)Nc1cc2c(Nc3ccc(F)c(Cl)c3)ncnc2cc1O[C@H]1CCOC1 + C=CC(=O)N1CCN(c2nc(=O)n(-c3c(C)ccnc3C(C)C)c3nc(-c4c(O)cccc4F)c(F)cc23)C(C)C1", "KRAS patient-derived spheroids with HUVEC/MSC, viability", "f"],
  ["CCNC(=O)CC1N=C(c2ccc(Cl)cc2)c2cc(OC)ccc2-n2c(C)nnc21 (stereo unspecified) + COc1cc2nc(C)nc(NC(C)c3cc(N)cc(C(F)(F)F)c3)c2cc1OC1CCOC1", "KRAS patient-derived spheroids with HUVEC/MSC, viability", "f"],
  ["O=C(c1cc(Cc2n[nH]c(=O)c3ccccc23)ccc1F)N1CCN(C(=O)C2CC2)CC1 + C=CC(=O)N1CCN(c2nc(=O)n(-c3c(C)ccnc3C(C)C)c3nc(-c4c(O)cccc4F)c(F)cc23)C(C)C1", "KRAS patient-derived spheroids with HUVEC/MSC, viability", "f"],
  ["CC1OCC2(CCN(c3cnc(Sc4ccnc(N)c4Cl)c(N)n3)CC2)C1N (stereo unspecified) + C=CC(=O)N1CCN(c2nc(=O)n(-c3c(C)ccnc3C(C)C)c3nc(-c4c(O)cccc4F)c(F)cc23)C(C)C1", "KRAS patient-derived spheroids with HUVEC/MSC, viability", "t"],
  ["COc1cc2nccc(Oc3ccc(NC(=O)C4(C(=O)Nc5ccc(F)cc5)CC4)cc3)c2cc1OC + C=CC(=O)N1CCN(c2nc(=O)n(-c3c(C)ccnc3C(C)C)c3nc(-c4c(O)cccc4F)c(F)cc23)C(C)C1", "KRAS patient-derived spheroids with HUVEC/MSC, viability", "f"],
  ["Cn1nccc1Nc1nccc(-c2cc3c(s2)C(C)(C)N(CCN2CCOCC2)C3=O)n1 + CC1OCC2(CCN(c3cnc(Sc4ccnc(N)c4Cl)c(N)n3)CC2)C1N", "KRAS patient-derived spheroids with HUVEC/MSC, viability", "t"],
  ["Cn1nccc1Nc1nccc(-c2cc3c(s2)C(C)(C)N(CCN2CCOCC2)C3=O)n1 + C=CC(=O)N1CCN(c2nc(=O)n(-c3c(C)ccnc3C(C)C)c3nc(-c4c(O)cccc4F)c(F)cc23)C(C)C1", "KRAS patient-derived spheroids with HUVEC/MSC, viability", "f"],
  ["COc1cc2nccc(Oc3ccc(NC(=O)C4(C(=O)Nc5ccc(F)cc5)CC4)cc3)c2cc1OC + C=CC(=O)N1CCN(c2nc(OCC3CCCN3C)nc3c2CCN(c2cccc4cccc(C)c24)C3)CC1CC#N", "KRAS patient-derived spheroids with HUVEC/MSC, viability", "t"],
  ["CC1COCCN1c1cc(-c2ccnn2C)c2ccnc(-c3ccn[nH]3)c2n1 (stereo unspecified) + C=CC(=O)N1CCN(c2nc(=O)n(-c3c(C)ccnc3C(C)C)c3nc(-c4c(O)cccc4F)c(F)cc23)C(C)C1", "KRAS patient-derived spheroids with HUVEC/MSC, viability", "t"],
  ["CC1OCC2(CCN(c3cnc(Sc4ccnc(N)c4Cl)c(N)n3)CC2)C1N (stereo unspecified) + CNCc1ccccc1-c1csc(C(C)Nc2nc(C)nc3cc(OC)c(OC)cc23)c1", "KRAS patient-derived spheroids with HUVEC/MSC, viability", "f"]
]}

----------
- System: KRAS patient-derived spheroids with HUVEC/MSC, viability
- test summary: Anticancer human tumor 323965-272-R-J2-PDC cell line growth inhibition [KRAS2];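 also: spheroids exposed to agents for 7 days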
- condition label: curve of first compound; second compound 1 µM

{"columns": ["compound", "tested on", "unit of measurement", "relation", "IC50"],
 "data": [
  ["Cn1ncnc1[C@H]1c2n[nH]c(=O)c3cc(F)cc(c23)N[C@@H]1c1ccc(F)cc1 + CC1OCC2(CCN(c3cnc(Sc4ccnc(N)c4Cl)c(N)n3)CC2)C1N", "KRAS patient-derived spheroids with HUVEC/MSC, viability", "nM", "<", 0.316],
  ["CC(=O)Nc1cccc(-n2c(=O)n(C3CC3)c(=O)c3c(Nc4ccc(I)cc4F)n(C)c(=O)c(C)c32)c1 + C=CC(=O)N1CCN(c2nc(=O)n(-c3c(C)ccnc3C(C)C)c3nc(-c4c(O)cccc4F)c(F)cc23)C(C)C1", "KRAS patient-derived spheroids with HUVEC/MSC, viability", "nM", "=", 0.79],
  ["CC(C)NCC(C(=O)N1CCN(c2ncnc3c2C(C)CC3O)CC1)c1ccc(Cl)cc1 (stereo not given) + C=CC(=O)N1CCN(c2nc(=O)n(-c3c(C)ccnc3C(C)C)c3nc(-c4c(O)cccc4F)c(F)cc23)C(C)C1", "KRAS patient-derived spheroids with HUVEC/MSC, viability", "nM", "=", 159],
  ["CC1COCCN1c1cc(-c2ccnn2C)c2ccnc(-c3ccn[nH]3)c2n1 (stereo not given) + C=CC(=O)N1CCN(c2nc(=O)n(-c3c(C)ccnc3C(C)C)c3nc(-c4c(O)cccc4F)c(F)cc23)C(C)C1", "KRAS patient-derived spheroids with HUVEC/MSC, viability", "nM", "=", 11.9],
  ["CCNC(=O)CC1N=C(c2ccc(Cl)cc2)c2cc(OC)ccc2-n2c(C)nnc21 (stereo not given) + CNCc1ccccc1-c1csc(C(C)Nc2nc(C)nc3cc(OC)c(OC)cc23)c1", "KRAS patient-derived spheroids with HUVEC/MSC, viability", "nM", "=", 466],
  ["CC(=O)OC12COC1CC(O)C1(C)C(=O)C(O)C3=C(C)C(OC(=O)C(O)C(NC(=O)OC(C)(C)C)c4ccccc4)CC(O)(C(OC(=O)c4ccccc4)C21)C3(C)C (stereo not given) + C=CC(=O)N1CCN(c2nc(=O)n(-c3c(C)ccnc3C(C)C)c3nc(-c4c(O)cccc4F)c(F)cc23)C(C)C1", "KRAS patient-derived spheroids with HUVEC/MSC, viability", "nM", "<", 10],
  ["CCN1CCN(Cc2ccc(Nc3ncc(F)c(-c4cc(F)c5nc(C)n(C(C)C)c5c4)n3)nc2)CC1 + COc1cc2nc(C)nc(NC(C)c3cc(N)cc(C(F)(F)F)c3)c2cc1OC1CCOC1", "KRAS patient-derived spheroids with HUVEC/MSC, viability", "nM", "=", 32.6],
  ["CC(=O)OC12COC1CC(O)C1(C)C(=O)C(O)C3=C(C)C(OC(=O)C(O)C(NC(=O)OC(C)(C)C)c4ccccc4)CC(O)(C(OC(=O)c4ccccc4)C21)C3(C)C (stereo not given) + C=CC(=O)N1CCN(c2nc(OCC3CCCN3C)nc3c2CCN(c2cccc4cccc(C)c24)C3)CC1CC#N", "KRAS patient-derived spheroids with HUVEC/MSC, viability", "nM", "<", 10],
  ["COC(=O)c1ccc2c(C(=Nc3ccc(N(C)C(=O)CN4CCN(C)CC4)cc3)c3ccccc3)c(O)[nH]c2c1 + CNCc1ccccc1-c1csc(C(C)Nc2nc(C)nc3cc(OC)c(OC)cc23)c1", "KRAS patient-derived spheroids with HUVEC/MSC, viability", "nM", ">", 10000],
  ["CC(C)NCC(C(=O)N1CCN(c2ncnc3c2C(C)CC3O)CC1)c1ccc(Cl)cc1 (stereo not given) + C=CC(=O)N1CCN(c2nc(OCC3CCCN3C)nc3c2CCN(c2cccc4cccc(C)c24)C3)CC1CC#N", "KRAS patient-derived spheroids with HUVEC/MSC, viability", "nM", "=", 118]
]}

----------
- Tested on: KRAS patient-derived spheroids with HUVEC/MSC, viability
- test summary: Anticancer human tumor 323965-272-R-J2-PDC cell line growth inhibition [KRAS2];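 also: spheroids exposed to agents for 7 days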;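 as to viability, T/C: 100% = DMSO vehicle control viability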
- condition label: second compound 0.1 µM; first compound 0.000316 µM; stronger effect = lower value
Let's look at some compounds and their measured viability, T/C.
metric: viability, T/C

{"columns": ["compound", "reported"],
 "data": [
  ["Cn1ncnc1[C@H]1c2n[nH]c(=O)c3cc(F)cc(c23)N[C@@H]1c1ccc(F)cc1 + C=CC(=O)N1CCN(c2nc(=O)n(-c3c(C)ccnc3C(C)C)c3nc(-c4c(O)cccc4F)c(F)cc23)C(C)C1", "59.7%"],
  ["CN(C)C/C=C/C(=O)Nc1cc2c(Nc3ccc(F)c(Cl)c3)ncnc2cc1O[C@H]1CCOC1 + C=CC(=O)N1CCN(c2nc(OCC3CCCN3C)nc3c2CCN(c2cccc4cccc(C)c24)C3)CC1CC#N", "66%"],
  ["CC(C)n1nc(-c2ccc3oc(N)nc3c2)c2c(N)ncnc21 + CC1OCC2(CCN(c3cnc(Sc4ccnc(N)c4Cl)c(N)n3)CC2)C1N", "77%"],
  ["Cn1ncnc1[C@H]1c2n[nH]c(=O)c3cc(F)cc(c23)N[C@@H]1c1ccc(F)cc1 + CC1OCC2(CCN(c3cnc(Sc4ccnc(N)c4Cl)c(N)n3)CC2)C1N", "80.9%"],
  ["CC(C)n1nc(-c2ccc3oc(N)nc3c2)c2c(N)ncnc21 + CNCc1ccccc1-c1csc(C(C)Nc2nc(C)nc3cc(OC)c(OC)cc23)c1", "84.4%"],
  ["CN(C)C/C=C/C(=O)Nc1cc2c(Nc3ccc(F)c(Cl)c3)ncnc2cc1O[C@H]1CCOC1 + CNCc1ccccc1-c1csc(C(C)Nc2nc(C)nc3cc(OC)c(OC)cc23)c1", "91.6%"],
  ["CC(C)n1nc(-c2ccc3oc(N)nc3c2)c2c(N)ncnc21 + COc1cc2nc(C)nc(NC(C)c3cc(N)cc(C(F)(F)F)c3)c2cc1OC1CCOC1", "67.1%"],
  ["CN(C)C/C=C/C(=O)Nc1cc2c(Nc3ccc(F)c(Cl)c3)ncnc2cc1O[C@H]1CCOC1 + COc1cc2nc(C)nc(NC(C)c3cc(N)cc(C(F)(F)F)c3)c2cc1OC1CCOC1", "84.3%"]
]}
